Hello, the source for this data is ChEMBL document CHEMBL4004822, in case you need it.

System: NAD-dependent protein deacetylase sirtuin-2 (Homo sapiens, UniProt Q8IXJ6)
Sequence (Q8IXJ6 whole entry, the tested form may be a part): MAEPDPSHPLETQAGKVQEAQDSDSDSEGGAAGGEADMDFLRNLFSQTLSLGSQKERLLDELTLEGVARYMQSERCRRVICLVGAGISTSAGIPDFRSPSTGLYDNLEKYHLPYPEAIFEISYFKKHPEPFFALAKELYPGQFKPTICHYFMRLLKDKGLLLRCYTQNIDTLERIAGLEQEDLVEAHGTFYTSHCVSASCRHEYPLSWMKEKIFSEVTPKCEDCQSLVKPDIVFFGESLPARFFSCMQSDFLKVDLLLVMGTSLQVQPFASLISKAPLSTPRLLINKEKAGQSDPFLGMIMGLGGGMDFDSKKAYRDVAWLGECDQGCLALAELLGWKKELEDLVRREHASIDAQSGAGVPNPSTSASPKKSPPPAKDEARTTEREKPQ
Test Details: Inhibition of recombinant human C-terminal His-tagged SIRT2 (50 to 389 end residues) expressed in Escherichia coli using p53 derived (379 to 382 residues) fluorogenic peptide substrate RHKK(Ac)-AMC preincubated for 10 mins followed by substrate addition in presence of NAD+ by fluorescence assay
Recorded Endpoint: IC50 (µM)
Quick note: give the figure in µM, leave out the unit.

Examples from the recorded data:
Compound	Units Label	IC50
COc1ccc2ccccc2c1Cn1cnc2sc3c(c2c1=O)CCC(NCC1CCOC1)C3 (stereo not given)	µM	6.03
COc1ccc2ccccc2c1Cn1cnc2sc3c(c2c1=O)CCC(NC1CCOCC1)C3 (stereo not given)	µM	1.11
COc1cccc(CNC2CCc3c(sc4ncn(Cc5c(OC)ccc6ccccc56)c(=O)c34)C2)c1 (stereo not given)	µM	1.9
COc1ccc(NC2CCc3c(sc4ncn(Cc5cccc6cccnc56)c(=O)c34)C2)cc1 (stereo not given)	µM	2.48

Now consider the entry below.
Prompt: // lookup IC50 | system=NAD-dependent protein deacetylase sirtuin-2 (Homo sapiens, UniProt Q8IXJ6) | key= O=c1c2c3c(sc2ncn1Cc1cccc2cccnc12)CC(NCc1cccs1)CC3 (stereo not given)
Completion: 2.56
